Biological target: UniProtKB P35354
Sequence (P35354 18-604): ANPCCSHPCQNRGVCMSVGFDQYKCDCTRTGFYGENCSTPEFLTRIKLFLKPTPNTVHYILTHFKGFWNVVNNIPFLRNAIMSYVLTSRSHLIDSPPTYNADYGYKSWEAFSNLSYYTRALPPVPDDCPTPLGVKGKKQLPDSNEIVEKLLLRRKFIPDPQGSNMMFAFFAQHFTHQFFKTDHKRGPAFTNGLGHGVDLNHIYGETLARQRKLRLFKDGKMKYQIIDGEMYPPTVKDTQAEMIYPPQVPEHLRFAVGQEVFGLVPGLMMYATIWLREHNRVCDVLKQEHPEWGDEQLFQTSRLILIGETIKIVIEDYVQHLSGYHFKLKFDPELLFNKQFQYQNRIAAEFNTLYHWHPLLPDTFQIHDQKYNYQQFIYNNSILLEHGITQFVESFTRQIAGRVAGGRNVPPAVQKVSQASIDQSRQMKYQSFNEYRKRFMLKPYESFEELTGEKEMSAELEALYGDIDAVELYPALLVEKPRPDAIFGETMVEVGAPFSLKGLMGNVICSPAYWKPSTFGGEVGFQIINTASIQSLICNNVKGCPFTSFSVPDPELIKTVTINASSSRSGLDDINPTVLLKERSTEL
Assay: Whole cell assay for COX-2 using CHO transfected cell lines (inhibition of PGE2 production)
MEASUREMENT NAME: IC50 (nM)
Please reply with the bare figure in nM and do not write the unit itself.

molecule CC1(c2ccsc2)C(=O)C(c2ccccc2)=C1c1ccc(S(C)(=O)=O)cc1 (centres unmarked) , IC50 observed: 25

# molecule "C/C(CO)=C1\CC(c2ccc(S(C)(=O)=O)cc2)=C1c1ccccc1" ; its IC50 = 22
